target: 15-PGDH in A549 cells (Homo sapiens, UniProt P15428); construct: endogenous in cells; host or cells: A549; test: A549 cellular 15-PGDH assay (PGE2 accumulation, HTRF); assay type: cell-based; settings: interleukin-stimulated, inhibitor 24 hrs, PGE2 by competitive HTRF, read-out: A549 Cell Assay IC50
Sequence (P15428 whole entry): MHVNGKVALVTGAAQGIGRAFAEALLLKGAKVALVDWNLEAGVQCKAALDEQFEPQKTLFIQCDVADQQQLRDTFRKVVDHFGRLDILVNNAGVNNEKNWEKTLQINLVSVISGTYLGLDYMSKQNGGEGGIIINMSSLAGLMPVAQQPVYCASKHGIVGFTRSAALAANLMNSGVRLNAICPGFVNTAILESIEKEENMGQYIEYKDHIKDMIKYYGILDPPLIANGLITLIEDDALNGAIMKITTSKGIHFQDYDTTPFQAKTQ
Lab note: anything with IC50 below 1 nM is marked class 1; values at 1 nM or higher are marked class 0.

>  <MOLECULE>
Cn1cc2cc(-c3ccc4cc(C(O)C5CCC5)sc4n3)cnc2n1 (stereo not drawn) [Compound B18]

>  <STUDY SYSTEM>
15-PGDH in A549 cells (Homo sapiens, UniProt P15428)

>  <LABEL CLASS>
class 1

$$$$
>  <MOLECULE>
Cn1cc2cc(-c3ccc4cc(C(O)C5CC(F)(F)C5)sc4n3)cnc2n1 (stereo not drawn) [Compound B30]

>  <STUDY SYSTEM>
15-PGDH in A549 cells (Homo sapiens, UniProt P15428)

>  <LABEL CLASS>
class 1

$$$$
>  <MOLECULE>
CO[C@H]1C[C@@H]([C@@H](O)c2cc3ccc(-c4cnc5nn(C)cc5c4)nc3s2)C1 (single isomer, unassigned) [Compound B88RC]

>  <STUDY SYSTEM>
15-PGDH in A549 cells (Homo sapiens, UniProt P15428)

>  <LABEL CLASS>
class 1

$$$$
>  <MOLECULE>
Cn1nnc2cc(-c3ccc4cc([C@]5(O)C[C@@H](C(F)F)C5)sc4n3)cnc21 [Compound C76C]

>  <STUDY SYSTEM>
15-PGDH in A549 cells (Homo sapiens, UniProt P15428)

>  <LABEL CLASS>
class 0

$$$$
>  <MOLECULE>
Cn1cc2cc(-c3ncc4sc([C@]5(O)C[C@@H](C(F)F)C5)cc4n3)cnc2n1 [Compound C89C]

>  <STUDY SYSTEM>
15-PGDH in A549 cells (Homo sapiens, UniProt P15428)

>  <LABEL CLASS>
class 0

$$$$
>  <MOLECULE>
CC[C@@H](O)c1cc2c(C3CC3)cc(-c3cnc4nn(C)cc4c3)nc2s1 (single isomer, unassigned) [Compound B13R]

>  <STUDY SYSTEM>
15-PGDH in A549 cells (Homo sapiens, UniProt P15428)

>  <LABEL CLASS>
class 0

$$$$
>  <MOLECULE>
CO[C@]1(C(F)(F)F)C[C@@](O)(c2cc3cnc(-c4cnc5nn(C)cc5c4)nc3s2)C1 (single isomer, unassigned) [Compound C113C]

>  <STUDY SYSTEM>
15-PGDH in A549 cells (Homo sapiens, UniProt P15428)

>  <LABEL CLASS>
class 0

$$$$
>  <MOLECULE>
Cn1cc2cc(-c3ncc4cc(C5(O)CC6(CC(F)(F)C6)C5)sc4n3)cnc2n1 [Compound C116]

>  <STUDY SYSTEM>
15-PGDH in A549 cells (Homo sapiens, UniProt P15428)

>  <LABEL CLASS>
class 0

$$$$
>  <MOLECULE>
Cn1cc2cc(-c3ccc4cc([C@]5(O)C[C@@H](OC(F)(F)F)C5)sc4n3)cnc2n1 [Compound C67C]

>  <STUDY SYSTEM>
15-PGDH in A549 cells (Homo sapiens, UniProt P15428)

>  <LABEL CLASS>
class 1

$$$$
>  <MOLECULE>
Cn1cc2cc(-c3ccc4cc([C@H](O)[C@@H]5CCC5(F)F)sc4n3)cnc2n1 (single isomer, unassigned) [Compound B94RS]

>  <STUDY SYSTEM>
15-PGDH in A549 cells (Homo sapiens, UniProt P15428)

>  <LABEL CLASS>
class 1

$$$$
>  <MOLECULE>
Cc1cn2ccc(-c3ccc4cc([C@@H](O)C5CC(F)(F)C5)sc4n3)cc2n1 (single isomer, unassigned) [Compound B55S]

>  <STUDY SYSTEM>
15-PGDH in A549 cells (Homo sapiens, UniProt P15428)

>  <LABEL CLASS>
class 0

$$$$
>  <MOLECULE>
Cn1cc2cc(-c3ccc4cc(C5(O)CC(F)(F)C5)sc4n3)ccc2n1 [Compound C49]

>  <STUDY SYSTEM>
15-PGDH in A549 cells (Homo sapiens, UniProt P15428)

>  <LABEL CLASS>
class 0

$$$$
>  <MOLECULE>
Cc1c([C@H](CO)C2CC(F)(F)C2)sc2nc(-c3cnc4nn(C)cc4c3)ccc12 (single isomer, unassigned) [Compound B93S]

>  <STUDY SYSTEM>
15-PGDH in A549 cells (Homo sapiens, UniProt P15428)

>  <LABEL CLASS>
class 0

$$$$
>  <MOLECULE>
Cn1cc2cc(-c3ccc4ccc([C@H](O)C5CC(F)(F)C5)cc4n3)cnc2n1 (single isomer, unassigned) [Compound D1R]

>  <STUDY SYSTEM>
15-PGDH in A549 cells (Homo sapiens, UniProt P15428)

>  <LABEL CLASS>
class 1

$$$$
>  <MOLECULE>
COCC[C@@H](O)c1cc2ccc(-c3cnc4nn(C)cc4c3)cc2s1 (single isomer, unassigned) [Compound B59R]

>  <STUDY SYSTEM>
15-PGDH in A549 cells (Homo sapiens, UniProt P15428)

>  <LABEL CLASS>
class 0

$$$$
>  <MOLECULE>
Cn1cc2cc(-c3ccc4nc([C@]5(O)C[C@@H](C(F)(F)F)C5)sc4n3)cnc2n1 [Compound C74C]

>  <STUDY SYSTEM>
15-PGDH in A549 cells (Homo sapiens, UniProt P15428)

>  <LABEL CLASS>
class 1

$$$$
>  <MOLECULE>
C[C@@H](O)c1cc2c(C3CC3)cc(-c3cnc4nn(C)cc4c3)nc2s1 (single isomer, unassigned) [Compound B11R]

>  <STUDY SYSTEM>
15-PGDH in A549 cells (Homo sapiens, UniProt P15428)

>  <LABEL CLASS>
class 0

$$$$
>  <MOLECULE>
Cn1cc2cc(-c3ccc4cc([C@H](O)C5CC(F)(F)C5)ccc4n3)cnc2n1 (single isomer, unassigned) [Compound D7R]

>  <STUDY SYSTEM>
15-PGDH in A549 cells (Homo sapiens, UniProt P15428)

>  <LABEL CLASS>
class 0

$$$$
>  <MOLECULE>
Cn1cc2cc(-c3ccc4cc([C@H](O)C5(C)CC(F)(F)C5)sc4n3)cnc2n1 (single isomer, unassigned) [Compound B86R]

>  <STUDY SYSTEM>
15-PGDH in A549 cells (Homo sapiens, UniProt P15428)

>  <LABEL CLASS>
class 1

$$$$
>  <MOLECULE>
Cn1cc2cc(-c3cc(-c4ccnn4C)c4cc(C(C)(O)C5CCC5)sc4n3)cnc2n1 (stereo not drawn) [Compound C23]

>  <STUDY SYSTEM>
15-PGDH in A549 cells (Homo sapiens, UniProt P15428)

>  <LABEL CLASS>
class 0

$$$$
>  <MOLECULE>
Cn1cc2cc(-c3ncc4cc([C@]5(O)C[C@](C)(C#N)C5)sc4n3)cnc2n1 (single isomer, unassigned) [Compound C96T]

>  <STUDY SYSTEM>
15-PGDH in A549 cells (Homo sapiens, UniProt P15428)

>  <LABEL CLASS>
class 0

$$$$
>  <MOLECULE>
CO[C@]1(C)C[C@@](O)(c2cc3cnc(-c4cnc5nn(C)cc5c4)nc3s2)C1 (single isomer, unassigned) [Compound C118C]

>  <STUDY SYSTEM>
15-PGDH in A549 cells (Homo sapiens, UniProt P15428)

>  <LABEL CLASS>
class 0

$$$$
>  <MOLECULE>
Cn1cc2cc(-c3ccc4ccc([C@@H](O)C5CC(F)(F)C5)cc4n3)cnc2n1 (single isomer, unassigned) [Compound D1S]

>  <STUDY SYSTEM>
15-PGDH in A549 cells (Homo sapiens, UniProt P15428)

>  <LABEL CLASS>
class 1

$$$$
>  <MOLECULE>
Cc1cn2cc(-c3ccc4cc(C5(O)CC(F)(F)C5)sc4n3)ccc2n1 [Compound C37]

>  <STUDY SYSTEM>
15-PGDH in A549 cells (Homo sapiens, UniProt P15428)

>  <LABEL CLASS>
class 0

$$$$
>  <MOLECULE>
CO[C@]1(C)C[C@@](O)(c2nc3ccc(-c4cnc5nn(C)cc5c4)nc3s2)C1 (single isomer, unassigned) [Compound C125C]

>  <STUDY SYSTEM>
15-PGDH in A549 cells (Homo sapiens, UniProt P15428)

>  <LABEL CLASS>
class 0

$$$$
>  <MOLECULE>
Cn1cc2cc(-c3cnc4cc([C@H](O)C5CC(F)(F)C5)sc4c3)cnc2n1 (single isomer, unassigned) [Compound B78R]

>  <STUDY SYSTEM>
15-PGDH in A549 cells (Homo sapiens, UniProt P15428)

>  <LABEL CLASS>
class 0

$$$$
>  <MOLECULE>
CO[C@]1(C(F)(F)F)C[C@](O)(c2cc3cnc(-c4cnc5nn(C)cc5c4)nc3s2)C1 (single isomer, unassigned) [Compound C113T]

>  <STUDY SYSTEM>
15-PGDH in A549 cells (Homo sapiens, UniProt P15428)

>  <LABEL CLASS>
class 0

$$$$
